Assay: qHTS Assay for Modulators of miRNAs and/or Inhibitors of miR-21; further: potency means the concentration at half of the fitted maximal effect; nearly all actives have a fitted effect of over 55% in size
Conditions: HeLa miR-21-FLuc reporter, luciferase luminescence, 48 h; actives lower the signal
About 3,300 (0.97%) of roughly 340,000 compounds were called active. Another 9% or so got no clear call; they are omitted. This is one part of the list.
Each item that follows carries a reported Potency.
value-kind: Potency

# compound, value-kind, experimental-value
records = [
    ("COc1ccc(/C(N)=N/OC(=O)Cc2cccs2)cc1", "Potency", "6.56 µM (active)"),
    ("Cc1nc(-c2noc(-c3ccccc3Cl)n2)c(C(F)(F)F)o1", "Potency", "11.7 µM (active)"),
    ("CCCNC(=O)c1c(Cl)cnn1-c1ccc(C)cc1", "Potency", "4.14 µM (active)"),
    ("O=C(N=Nc1c(O)n(Cc2ccccc2)c2ccccc12)c1ccc(O)cc1", "Potency", "6.56 µM (active)"),
    ("COc1cccc(-n2nnc(-c3nc(-c4cccs4)no3)c2N)c1", "Potency", "1.04 µM (active)"),
    ("CCOC(=O)CSc1nc2cc(OCC)ccc2cc1C#N", "Potency", "4.65 µM (active)"),
    ("CC(=O)c1sc2nc(-c3ccco3)ccc2c1N", "Potency", "14.7 µM (active)"),
    ("O=C(NCCc1ccccc1)c1nc(-c2cccs2)no1", "Potency", "11.7 µM (active)"),
    ("c1ccc2nc(-c3ccc(-n4ccnc4)cc3)ccc2c1", "Potency", "0.826 µM (active)"),
    ("CCc1ccc(-n2nnc(-c3nc(-c4cccs4)no3)c2N)cc1", "Potency", "1.17 µM (active)"),
    ("CCC(=O)c1ccc(OCc2ccc(C#N)cc2)cc1", "Potency", "9.27 µM (active)"),
    ("c1csc(-c2nn3c(C4COc5ccccc5O4)nnc3s2)c1 (centres undefined)", "Potency", "16.5 µM (active)"),
    ("CCOC(=O)c1cnc(SCCc2ccccc2)nc1N", "Potency", "1.65 µM (active)"),
    ("CCOC(=O)c1cnc(SCc2ccc(C)cc2)nc1N", "Potency", "7.94 µM (active)"),
    ("Cc1ccc(-n2ncc3c(Nc4cccc(C)c4C)ncnc32)cc1", "Potency", "2.07 µM (active)"),
    ("CCc1ccccc1Nc1ncnc2c1cnn2-c1ccc(Cl)cc1", "Potency", "6.56 µM (active)"),
    ("CCOC(=O)c1c(C)[nH]c(C(=O)OCc2ccccc2F)c1C", "Potency", "0.414 µM (active)"),
    ("Cc1ccc(NC(=O)COc2ccc(Br)cc2C)cc1", "Potency", "9.27 µM (active)"),
    ("COC(=O)CSc1nc2cc(OC)ccc2cc1C#N", "Potency", "0.233 µM (active)"),
    ("Brc1ccc(-c2csc(NC3=NCCCCC3)n2)cc1", "Potency", "10.4 µM (active)"),
    ("Cc1c(-c2nsc(NC(=O)c3cccs3)n2)nnn1-c1ccc(Cl)cc1", "Potency", "2.07 µM (active)"),
    ("O=c1c2cc(-c3ccccc3)sc2nc2n1N=C(c1cccs1)CS2", "Potency", "0.414 µM (active)"),
    ("COc1ccc(-c2noc(-c3cccc(OC)c3OC)n2)cc1OC", "Potency", "2.93 µM (active)"),
    ("CCOC(=O)c1cc(-c2ccccc2)sc1N", "Potency", "18.5 µM (active)"),
    ("O=[N+]([O-])c1cc(/C=N/O)ccc1Oc1ccccc1Cl", "Potency", "16.5 µM (active)"),
    ("Cc1ccsc1C(=O)NNC(=O)C1CCCCC1C(=O)O (centres undefined)", "Potency", "1.85 µM (active)"),
    ("Cc1ccc(OCC(=O)Nc2ccon2)c([N+](=O)[O-])c1", "Potency", "6.56 µM (active)"),
    ("N#Cc1ccc(-c2csc(NC3=NCCCCC3)n2)cc1", "Potency", "6.56 µM (active)"),
    ("O=C(COc1ccccc1[N+](=O)[O-])Nc1cccnc1", "Potency", "8.26 µM (active)"),
    ("COC(=O)c1c(C)[nH]c(C(=O)OCc2ccc(F)cc2)c1C", "Potency", "2.07 µM (active)"),
    ("O=[N+]([O-])c1cc(/C=N\\O)ccc1Oc1ccc(F)cc1", "Potency", "16.5 µM (active)"),
    ("CCOC(=O)c1c(C)[nH]c(C(=O)OCCOc2ccccc2C)c1C", "Potency", "1.85 µM (active)"),
    ("N/C(Cc1cccc2ccccc12)=N\\OC(=O)Cc1cccs1", "Potency", "11.7 µM (active)"),
    ("COc1ccccc1-c1nn2c(-c3ccco3)nnc2s1", "Potency", "4.65 µM (active)"),
    ("Cc1ccsc1C(=O)NNC(=O)C1CC=CCC1C(=O)O (centres undefined)", "Potency", "4.65 µM (active)"),
    ("CSc1nsc(N/N=C/c2ccc3c(c2)OCO3)c1C#N", "Potency", "0.826 µM (active)"),
    ("NC(=O)c1sc2nc(-c3ccco3)ccc2c1N", "Potency", "14.7 µM (active)"),
    ("O=c1n(Cc2ccccc2Cl)nc2n1-c1ccccc1SC2", "Potency", "10.4 µM (active)"),
    ("N#Cc1ccc(C2N=C(c3ccccc3)NO2)cc1 (centres undefined)", "Potency", "0.585 µM (active)"),
    ("O=C(O)CCc1ccc(S(=O)(=O)Nc2ccccc2C(=O)NCCc2ccccc2)cc1", "Potency", "6.56 µM (active)"),
    ("Cc1c(-c2nsc(NC(=O)c3cccs3)n2)nnn1-c1ccc(F)cc1", "Potency", "0.521 µM (active)"),
    ("CCC(=O)Nc1nnc(/C=C/c2ccc(OC)cc2)s1", "Potency", "11.7 µM (active)"),
    ("CC(=O)NCCC(=O)Nc1nc2ccc(Oc3ccccc3)cc2s1", "Potency", "1.65 µM (active)"),
    ("C/C(=N\\OCc1cccc(C(=O)O)c1)c1ccc(Cl)cc1", "Potency", "0.0414 µM (active)"),
    ("c1ccc(SCc2nc3ccccc3s2)nc1", "Potency", "3.69 µM (active)"),
    ("N/C(=N\\OC(=O)Cc1cccs1)c1ccc(Br)cc1", "Potency", "16.5 µM (active)"),
    ("Cc1nc2ccccc2nc(C)c1=NOCc1ccc(Cl)cc1Cl", "Potency", "16.5 µM (active)"),
    ("CCCn1c(SCc2nc3ccccc3s2)n[nH]c1=O", "Potency", "6.56 µM (active)"),
    ("CCOc1ccccc1Nc1ncnc2c1cnn2-c1ccc(C)cc1", "Potency", "5.21 µM (active)"),
]
